The origin of these recorded values is ChEMBL document CHEMBL4311965.

- Tested on: Staphylococcus aureus
- PROTOCOL_SUMMARY: Antibacterial activity against multidrug-resistant Staphylococcus aureus NCTC 10442 cultured in MHB medium assessed as reduction in bacterial growth incubated for 24 hrs by microdilution susceptibility test
- Format: functional
- EXPERIMENTAL_CONTEXT: NCTC 10442, 24 h
# Lookup of reported MIC keyed by entry
A number alone suffices; assume µg/mL.

* N=C(N)NCCNC(=O)C(CNC(=N)N)(Cc1cc(Br)cc(Br)c1)Cc1cc(Br)cc(Br)c1 | 2

Please report the measured MIC for "NCCNCC(CN)(Cc1cc(C(F)(F)F)cc(C(F)(F)F)c1)Cc1cc(C(F)(F)F)cc(C(F)(F)F)c1"
8

Please report the measured MIC for "N=C(N)NCCNC(=O)C(CNC(=N)N)(Cc1ccc(F)c2ccccc12)Cc1ccc(F)c2ccccc12"
4

Please report the measured MIC for "NCCNCC(CN)(Cc1cc(Br)cc(Br)c1)Cc1cc(Br)cc(Br)c1"
4

* * *

- Tested on: Pseudomonas aeruginosa
- PROTOCOL_SUMMARY: Antibacterial activity against multidrug-resistant Pseudomonas aeruginosa K44-24 producing imipenem-type carbapenemase-14 cultured in MHB medium assessed as reduction in bacterial growth incubated for 24 hrs by microdilution susceptibility test
- Type: functional
- EXPERIMENTAL_CONTEXT: K44-24, 24 h
# Lookup of reported MIC keyed by entry
A number alone suffices; assume µg/mL.

Please report the measured MIC for "NCCNC(=O)C(CN)(Cc1cc(Br)cc(Br)c1)Cc1cc(Br)cc(Br)c1"
32

Please report the measured MIC for "NCCNCC(CN)(Cc1ccccc1Br)Cc1ccccc1Br"
32

Please report the measured MIC for "N=C(N)NCCNC(=O)C(CNC(=N)N)(Cc1cc(C(F)(F)F)cc(C(F)(F)F)c1)Cc1cc(C(F)(F)F)cc(C(F)(F)F)c1"
32

Please report the measured MIC for "N=C(N)NCCNC(=O)C(CNC(=N)N)(Cc1cc(Br)cc(Br)c1)Cc1cc(Br)cc(Br)c1"
16

Please report the measured MIC for "NCCNCC(CN)(Cc1ccc(F)c2ccccc12)Cc1ccc(F)c2ccccc12"
16

Please report the measured MIC for "NCCNCC(CN)(Cc1cc(C(F)(F)F)cc(C(F)(F)F)c1)Cc1cc(C(F)(F)F)cc(C(F)(F)F)c1"
32

Please report the measured MIC for "NCCNCC(CN)(Cc1cc(Br)cc(Br)c1)Cc1cc(Br)cc(Br)c1"
16

Please report the measured MIC for "NCCNC(=O)C(CN)(Cc1ccc(F)c2ccccc12)Cc1ccc(F)c2ccccc12"
32

* * *

- System: Enterococcus faecium
- PROTOCOL_SUMMARY: Antibacterial activity against multidrug-resistant Enterococcus faecium 50673722 cultured in BHIB medium assessed as reduction in bacterial growth incubated for 24 hrs by microdilution susceptibility test
- Assay type: functional
- EXPERIMENTAL_CONTEXT: Enterococcus faecium, 50673722, 24 h
OUTCOME_MEASURE: MIC (µg/mL)
A number alone suffices; assume µg/mL.

// below: answered compounds
* N=C(N)NCCNC(=O)C(CNC(=N)N)(Cc1cc(C(F)(F)F)cc(C(F)(F)F)c1)Cc1cc(C(F)(F)F)cc(C(F)(F)F)c1 | 8
* N=C(N)NCCNC(=O)C(CNC(=N)N)(Cc1cc(Br)cc(Br)c1)Cc1cc(Br)cc(Br)c1 | 4
* NCCNCC(CN)(Cc1cc(Br)cc(Br)c1)Cc1cc(Br)cc(Br)c1 | 4
* NCCNC(=O)C(CN)(Cc1ccc(C(F)(F)F)cc1)Cc1ccc(C(F)(F)F)cc1 | 16
* N=C(N)NCCNC(=O)C(CNC(=N)N)(Cc1ccc(F)c2ccccc12)Cc1ccc(F)c2ccccc12 | 16

Fill in: MIC on Enterococcus faecium, entry "NCCNC(=O)C(CN)(Cc1cc(Br)cc(Br)c1)Cc1cc(Br)cc(Br)c1"
8

Fill in: MIC on Enterococcus faecium, entry "N#CC(Cc1cc(C(F)(F)F)cc(C(F)(F)F)c1)(Cc1cc(C(F)(F)F)cc(C(F)(F)F)c1)C(=O)NCCN"
16

Fill in: MIC on Enterococcus faecium, entry "NCCNC(=O)C(CN)(Cc1ccc(F)c2ccccc12)Cc1ccc(F)c2ccccc12"
16

Fill in: MIC on Enterococcus faecium, entry "NCCNCC(CN)(Cc1cc(C(F)(F)F)cc(C(F)(F)F)c1)Cc1cc(C(F)(F)F)cc(C(F)(F)F)c1"
4

Fill in: MIC on Enterococcus faecium, entry "NCCNCC(CN)(Cc1ccccc1Br)Cc1ccccc1Br"
16

Fill in: MIC on Enterococcus faecium, entry "NCCNCC(CN)(Cc1ccc(F)c2ccccc12)Cc1ccc(F)c2ccccc12"
4

Fill in: MIC on Enterococcus faecium, entry "NCCNC(=O)C(CN)(Cc1cc(C(F)(F)F)cc(C(F)(F)F)c1)Cc1cc(C(F)(F)F)cc(C(F)(F)F)c1"
8

Fill in: MIC on Enterococcus faecium, entry "NCCNC(=O)C(CN)(Cc1ccccc1C(F)(F)F)Cc1ccccc1C(F)(F)F"
32

* * *

- System: Staphylococcus aureus
- PROTOCOL_SUMMARY: Antibacterial activity against multidrug-resistant Staphylococcus aureus N315 cultured in MHB medium assessed as reduction in bacterial growth incubated for 24 hrs by microdilution susceptibility test
- Type: functional
- EXPERIMENTAL_CONTEXT: N315, 24 h
OUTCOME_MEASURE: MIC

// below: answered compounds
• NCCNCC(CN)(Cc1cc(Br)cc(Br)c1)Cc1cc(Br)cc(Br)c1 = 4 µg/mL
• N=C(N)NCCNC(=O)C(CNC(=N)N)(Cc1cc(Br)cc(Br)c1)Cc1cc(Br)cc(Br)c1 = 2 µg/mL
• N#CC(Cc1cc(C(F)(F)F)cc(C(F)(F)F)c1)(Cc1cc(C(F)(F)F)cc(C(F)(F)F)c1)C(=O)NCCN = > 32 µg/mL

Okay, next one:
Fill in: MIC on Staphylococcus aureus, entry "NCCNCC(CN)(Cc1ccccc1Br)Cc1ccccc1Br"
8 µg/mL

* * *

# Lookup of reported MIC keyed by entry
- Tested on: Pseudomonas aeruginosa
- PROTOCOL_SUMMARY: Antibacterial activity against multidrug-resistant Pseudomonas aeruginosa K34-7 producing Verona integron encoded metallo beta-lactamse-2 cultured in MHB medium assessed as reduction in bacterial growth incubated for 24 hrs by microdilution susceptibility test
- Type: functional
- EXPERIMENTAL_CONTEXT: K34-7, 24 h

// below: answered compounds
- NCCNC(=O)C(CN)(Cc1ccc(F)c2ccccc12)Cc1ccc(F)c2ccccc12: > 32 µg/mL
- N=C(N)NCCNC(=O)C(CNC(=N)N)(Cc1ccc(F)c2ccccc12)Cc1ccc(F)c2ccccc12: > 32 µg/mL
- NCCNC(=O)C(CN)(Cc1ccccc1C(F)(F)F)Cc1ccccc1C(F)(F)F: > 32 µg/mL
- NCCNC(=O)C(CN)(Cc1cc(C(F)(F)F)cc(C(F)(F)F)c1)Cc1cc(C(F)(F)F)cc(C(F)(F)F)c1: > 32 µg/mL
- N#CC(Cc1cc(C(F)(F)F)cc(C(F)(F)F)c1)(Cc1cc(C(F)(F)F)cc(C(F)(F)F)c1)C(=O)NCCN: > 32 µg/mL

Please report the measured MIC for "NCCNC(=O)C(CN)(Cc1cc(Br)cc(Br)c1)Cc1cc(Br)cc(Br)c1"
> 32 µg/mL

Please report the measured MIC for "NCCNC(=O)C(CN)(Cc1ccc(C(F)(F)F)cc1)Cc1ccc(C(F)(F)F)cc1"
> 32 µg/mL

* * *

- System: Acinetobacter baumannii
- PROTOCOL_SUMMARY: Antibacterial activity against multidrug-resistant Acinetobacter baumannii K55-13 producing oxcillinase-24 cultured in MHB medium assessed as reduction in bacterial growth incubated for 24 hrs by microdilution susceptibility test
- Type: functional
- EXPERIMENTAL_CONTEXT: K55-13, 24 h
OUTCOME_MEASURE: MIC

// below: answered compounds
• NCCNC(=O)C(CN)(Cc1ccc(C(F)(F)F)cc1)Cc1ccc(C(F)(F)F)cc1 = > 32 µg/mL
• NCCNC(=O)C(CN)(Cc1ccccc1C(F)(F)F)Cc1ccccc1C(F)(F)F = > 32 µg/mL

Okay, next one:
Fill in: MIC on Acinetobacter baumannii, entry "N=C(N)NCCNC(=O)C(CNC(=N)N)(Cc1ccc(F)c2ccccc12)Cc1ccc(F)c2ccccc12"
> 32 µg/mL
